Experiment: xn = mol fraction of the nth substance listed
Conditions: 298.15 K; 103 kPa; x1 = 0.05
± gives the uncertainty stated by the source.
Items are presented alongside their recorded viscosity.
Measured property: viscosity

Molecule	Result
C[Si]1(C)O[Si](C)(C)O[Si](C)(C)O[Si](C)(C)O1 + CCCCCCCCCCCCCC	1.944 ± 0.042 mPa·s
C[Si]1(C)O[Si](C)(C)O[Si](C)(C)O[Si](C)(C)O1 + CCCCCCCCCCCCC	1.619 ± 0.042 mPa·s
C[Si]1(C)O[Si](C)(C)O[Si](C)(C)O[Si](C)(C)O1 + CCCCCCCCCC	0.844 ± 0.04 mPa·s
C[Si]1(C)O[Si](C)(C)O[Si](C)(C)O[Si](C)(C)O1 + CCCCCCCCCCCC	1.314 ± 0.041 mPa·s
